tested on: Murine leukemia (L1210) cells; assay: Cytostatic activity, L1210 cell proliferation; assay type: cell-based; settings: mean ± SD of three experiments; highest concentration tested 250 µM; 2 days; read-out: Toxicity (IC50) L1210
Measured IC50, listed per entry for reference.

- Compound: "CN[C@H](CC(C)C)C(=O)N[C@H]1C(=O)N[C@@H](CC(N)=O)C(=O)N[C@H]2C(=O)N[C@H]3C(=O)N[C@H](C(=O)N[C@H](C(=O)NCC(=O)Nc4ccc(C)cc4Cl)c4cc(O)cc(O)c4-c4cc3ccc4O)[C@H](O)c3ccc(c(Cl)c3)Oc3cc2cc(c3O[C@@H]2O[C@H](CO)[C@@H](O)[C@H](O)[C@H]2O[C@H]2C[C@](C)(N)[C@H](O)[C@H](C)O2)Oc2ccc(cc2Cl)[C@H]1O"
  IC50: "> 250 µM"
- Compound: "CNC(CC(C)C)C(=O)NC1C(=O)NC(CC(N)=O)C(=O)NC2C(=O)NC3C(=O)NC(C(=O)NC(C(=O)NCCCNC(=O)c4ccc(-c5ccc(F)cc5)cc4)c4cc(O)cc(O)c4-c4cc3ccc4O)C(O)c3ccc(c(Cl)c3)Oc3cc2cc(c3OC2OC(CO)C(O)C(O)C2OC2CC(C)(N)C(O)C(C)O2)Oc2ccc(cc2Cl)C1O (stereo not drawn)"
  IC50: "42 µM"
- Compound: "CNC(CC(C)C)C(=O)NC1C(=O)NC(CC(N)=O)C(=O)NC2C(=O)NC3C(=O)NC(C(=O)NC(C(=O)NCCCNC(=O)c4ccc(C(C)(C)C)cc4)c4cc(O)cc(O)c4-c4cc3ccc4O)C(O)c3ccc(c(Cl)c3)Oc3cc2cc(c3OC2OC(CO)C(O)C(O)C2OC2CC(C)(N)C(O)C(C)O2)Oc2ccc(cc2Cl)C1O (stereo not drawn)"
  IC50: "108 µM"
- Compound: "CN[C@H](CC(C)C)C(=O)N[C@H]1C(=O)N[C@@H](CC(N)=O)C(=O)N[C@H]2C(=O)N[C@H]3C(=O)N[C@H](C(=O)N[C@H](C(=O)NCCNC(=O)/C=C/c4ccc(NS(=O)(=O)c5ccc(C(C)C)cc5)cc4)c4cc(O)cc(O)c4-c4cc3ccc4O)[C@H](O)c3ccc(c(Cl)c3)Oc3cc2cc(c3O[C@@H]2O[C@H](CO)[C@@H](O)[C@H](O)[C@H]2O[C@H]2C[C@](C)(N)[C@H](O)[C@H](C)O2)Oc2ccc(cc2Cl)[C@H]1O"
  IC50: "> 250 µM"
- Compound: "CNC(CC(C)C)C(=O)NC1C(=O)NC(CC(N)=O)C(=O)NC2C(=O)NC3C(=O)NC(C(=O)NC(C(=O)NCCCNC(=O)c4ccc(-c5ccccc5)cc4)c4cc(O)cc(O)c4-c4cc3ccc4O)C(O)c3ccc(c(Cl)c3)Oc3cc2cc(c3OC2OC(CO)C(O)C(O)C2OC2CC(C)(N)C(O)C(C)O2)Oc2ccc(cc2Cl)C1O (stereo not drawn)"
  IC50: "57 µM"
- Compound: "CNC(CC(C)C)C(=O)NC1C(=O)NC(CC(N)=O)C(=O)NC2C(=O)NC3C(=O)NC(C(=O)NC(C(=O)NCCCNC(=O)c4ccc5cc(NS(=O)(=O)c6ccccc6)ccc5c4)c4cc(O)cc(O)c4-c4cc3ccc4O)C(O)c3ccc(c(Cl)c3)Oc3cc2cc(c3OC2OC(CO)C(O)C(O)C2OC2CC(C)(N)C(O)C(C)O2)Oc2ccc(cc2Cl)C1O (stereo not drawn)"
  IC50: "> 250 µM"

---

tested on: E. faecalis VRE 6; assay: MIC, broth microdilution, vancomycin-resistant E. faecalis VRE 6 (VanA); assay type: cell-based, Enterococcus faecalis; conditions: Enterococcus faecalis VRE 6 (vancomycin-resistant); read-out: MIC
# reported MIC; entries follow
Measured quantity: MIC

- Molecule: "CNC(CC(C)C)C(=O)NC1C(=O)NC(CC(N)=O)C(=O)NC2C(=O)NC3C(=O)NC(C(=O)NC(C(=O)NCC(=O)Nc4ccc(-c5ccc(C(C)=O)cc5)cc4)c4cc(O)cc(O)c4-c4cc3ccc4O)C(O)c3ccc(c(Cl)c3)Oc3cc2cc(c3OC2OC(CO)C(O)C(O)C2OC2CC(C)(N)C(O)C(C)O2)Oc2ccc(cc2Cl)C1O (stereo not drawn)"
  Tested system: "E. faecalis VRE 6"
  Measured quantity: "MIC"
  Obs value: "0.78 µM"
- Molecule: "CN[C@H](CC(C)C)C(=O)N[C@H]1C(=O)N[C@@H](CC(N)=O)C(=O)N[C@H]2C(=O)N[C@H]3C(=O)N[C@H](C(=O)N[C@H](C(=O)NCCNC(=O)/C=C/c4ccc(NS(=O)(=O)c5ccc(C)cc5)cc4)c4cc(O)cc(O)c4-c4cc3ccc4O)[C@H](O)c3ccc(c(Cl)c3)Oc3cc2cc(c3O[C@@H]2O[C@H](CO)[C@@H](O)[C@H](O)[C@H]2O[C@H]2C[C@](C)(N)[C@H](O)[C@H](C)O2)Oc2ccc(cc2Cl)[C@H]1O"
  Tested system: "E. faecalis VRE 6"
  Measured quantity: "MIC"
  Obs value: "6.25 µM"
- Molecule: "CN[C@H](CC(C)C)C(=O)N[C@H]1C(=O)N[C@@H](CC(N)=O)C(=O)N[C@H]2C(=O)N[C@H]3C(=O)N[C@H](C(=O)N[C@H](C(=O)NCC(=O)Nc4ccc(Cl)cc4)c4cc(O)cc(O)c4-c4cc3ccc4O)[C@H](O)c3ccc(c(Cl)c3)Oc3cc2cc(c3O[C@@H]2O[C@H](CO)[C@@H](O)[C@H](O)[C@H]2O[C@H]2C[C@](C)(N)[C@H](O)[C@H](C)O2)Oc2ccc(cc2Cl)[C@H]1O"
  Tested system: "E. faecalis VRE 6"
  Measured quantity: "MIC"
  Obs value: "3.13 µM"

---

test system: E. faecalis VRE 53; assay: MIC, broth microdilution, vancomycin-resistant E. faecalis VRE 53 (VanA); type: cell-based, Enterococcus faecalis; details: Enterococcus faecalis VRE 53 (vancomycin-resistant); read-out: MIC
Measured quantity: MIC (µM)

- Compound: "CNC(CC(C)C)C(=O)NC1C(=O)NC(CC(N)=O)C(=O)NC2C(=O)NC3C(=O)NC(C(=O)NC(C(=O)NCCCNC(=O)c4ccc5cc(O)ccc5c4)c4cc(O)cc(O)c4-c4cc3ccc4O)C(O)c3ccc(c(Cl)c3)Oc3cc2cc(c3OC2OC(CO)C(O)C(O)C2OC2CC(C)(N)C(O)C(C)O2)Oc2ccc(cc2Cl)C1O (centres unmarked) [Vanc-30]"
  Measured quantity: "MIC"
  Unit abbreviation: "µM"
  Obs value: 25
- Compound: "CCCCCCn1cc(-c2ccc(NC(=O)CNC(=O)C3NC(=O)C4NC(=O)C(NC(=O)C5NC(=O)C(CC(N)=O)NC(=O)C(NC(=O)C(CC(C)C)NC)C(O)c6ccc(c(Cl)c6)Oc6cc5cc(c6OC5OC(CO)C(O)C(O)C5OC5CC(C)(N)C(O)C(C)O5)Oc5ccc(cc5Cl)C4O)c4ccc(O)c(c4)-c4c(O)cc(O)cc43)cc2)nn1 (centres unmarked) [Vanc-92]"
  Measured quantity: "MIC"
  Unit abbreviation: "µM"
  Obs value: 25

---

test system: Murine leukemia (L1210) cells; test: Cytostatic activity, L1210 cell proliferation; type: cell-based; settings: mean ± SD of three experiments; highest concentration tested 250 µM; 2 days; read-out: Toxicity (IC50) L1210
pIC50: −log10 of the molar value.
Overview of recorded pIC50 for various molecules
Measured quantity: pIC50

- Molecule: "CN[C@H](CC(C)C)C(=O)N[C@H]1C(=O)N[C@@H](CC(N)=O)C(=O)N[C@H]2C(=O)N[C@H]3C(=O)N[C@H](C(=O)N[C@H](C(=O)NCC(=O)Nc4cccc5ccccc45)c4cc(O)cc(O)c4-c4cc3ccc4O)[C@H](O)c3ccc(c(Cl)c3)Oc3cc2cc(c3O[C@@H]2O[C@H](CO)[C@@H](O)[C@H](O)[C@H]2O[C@H]2C[C@](C)(N)[C@H](O)[C@H](C)O2)Oc2ccc(cc2Cl)[C@H]1O"
  Qual: "<"
  Obs value: 3.60
- Molecule: "CN[C@H](CC(C)C)C(=O)N[C@H]1C(=O)N[C@@H](CC(N)=O)C(=O)N[C@H]2C(=O)N[C@H]3C(=O)N[C@H](C(=O)N[C@H](C(=O)NCC(=O)Nc4ccccc4)c4cc(O)cc(O)c4-c4cc3ccc4O)[C@H](O)c3ccc(c(Cl)c3)Oc3cc2cc(c3O[C@@H]2O[C@H](CO)[C@@H](O)[C@H](O)[C@H]2O[C@H]2C[C@](C)(N)[C@H](O)[C@H](C)O2)Oc2ccc(cc2Cl)[C@H]1O"
  Qual: "<"
  Obs value: 3.60
- Molecule: "CCCCCn1cc(-c2ccc(NC(=O)CNC(=O)C3NC(=O)C4NC(=O)C(NC(=O)C5NC(=O)C(CC(N)=O)NC(=O)C(NC(=O)C(CC(C)C)NC)C(O)c6ccc(c(Cl)c6)Oc6cc5cc(c6OC5OC(CO)C(O)C(O)C5OC5CC(C)(N)C(O)C(C)O5)Oc5ccc(cc5Cl)C4O)c4ccc(O)c(c4)-c4c(O)cc(O)cc43)cc2)nn1 (stereo not shown)"
  Qual: "="
  Obs value: 3.81
- Molecule: "CN[C@H](CC(C)C)C(=O)N[C@H]1C(=O)N[C@@H](CC(N)=O)C(=O)N[C@H]2C(=O)N[C@H]3C(=O)N[C@H](C(=O)N[C@H](C(=O)NCC(=O)Nc4ccc(NS(=O)(=O)c5ccc(Cl)cc5Cl)cc4)c4cc(O)cc(O)c4-c4cc3ccc4O)[C@H](O)c3ccc(c(Cl)c3)Oc3cc2cc(c3O[C@@H]2O[C@H](CO)[C@@H](O)[C@H](O)[C@H]2O[C@H]2C[C@](C)(N)[C@H](O)[C@H](C)O2)Oc2ccc(cc2Cl)[C@H]1O"
  Qual: "≤"
  Obs value: 3.60
- Molecule: "CN[C@H](CC(C)C)C(=O)N[C@H]1C(=O)N[C@@H](CC(N)=O)C(=O)N[C@H]2C(=O)N[C@H]3C(=O)N[C@H](C(=O)N[C@H](C(=O)NCCCNC(=O)c4ccc5ccccc5c4)c4cc(O)cc(O)c4-c4cc3ccc4O)[C@H](O)c3ccc(c(Cl)c3)Oc3cc2cc(c3O[C@@H]2O[C@H](CO)[C@@H](O)[C@H](O)[C@H]2O[C@H]2C[C@](C)(N)[C@H](O)[C@H](C)O2)Oc2ccc(cc2Cl)[C@H]1O"
  Qual: "<"
  Obs value: 3.60
- Molecule: "CNC(CC(C)C)C(=O)NC1C(=O)NC(CC(N)=O)C(=O)NC2C(=O)NC3C(=O)NC(C(=O)NC(C(=O)NCC(=O)Nc4ccc(-c5ccc(Cl)cc5)cc4)c4cc(O)cc(O)c4-c4cc3ccc4O)C(O)c3ccc(c(Cl)c3)Oc3cc2cc(c3OC2OC(CO)C(O)C(O)C2OC2CC(C)(N)C(O)C(C)O2)Oc2ccc(cc2Cl)C1O (stereo not shown)"
  Qual: "="
  Obs value: 5.82
- Molecule: "CCCCOc1ccc(C(=O)NCCCNC(=O)C2NC(=O)C3NC(=O)C(NC(=O)C4NC(=O)C(CC(N)=O)NC(=O)C(NC(=O)C(CC(C)C)NC)C(O)c5ccc(c(Cl)c5)Oc5cc4cc(c5OC4OC(CO)C(O)C(O)C4OC4CC(C)(N)C(O)C(C)O4)Oc4ccc(cc4Cl)C3O)c3ccc(O)c(c3)-c3c(O)cc(O)cc32)cc1 (stereo not shown)"
  Qual: "<"
  Obs value: 3.60
- Molecule: "CN[C@H](CC(C)C)C(=O)N[C@H]1C(=O)N[C@@H](CC(N)=O)C(=O)N[C@H]2C(=O)N[C@H]3C(=O)N[C@H](C(=O)N[C@H](C(=O)NCC(=O)Nc4cc(C)cc(C)c4)c4cc(O)cc(O)c4-c4cc3ccc4O)[C@H](O)c3ccc(c(Cl)c3)Oc3cc2cc(c3O[C@@H]2O[C@H](CO)[C@@H](O)[C@H](O)[C@H]2O[C@H]2C[C@](C)(N)[C@H](O)[C@H](C)O2)Oc2ccc(cc2Cl)[C@H]1O"
  Qual: "<"
  Obs value: 3.60
- Molecule: "CCCCC#Cc1ccc(/C=C/C(=O)NCCNC(=O)[C@H]2NC(=O)[C@H]3NC(=O)[C@H](NC(=O)[C@@H]4NC(=O)[C@H](CC(N)=O)NC(=O)[C@H](NC(=O)[C@@H](CC(C)C)NC)[C@H](O)c5ccc(c(Cl)c5)Oc5cc4cc(c5O[C@@H]4O[C@H](CO)[C@@H](O)[C@H](O)[C@H]4O[C@H]4C[C@](C)(N)[C@H](O)[C@H](C)O4)Oc4ccc(cc4Cl)[C@H]3O)c3ccc(O)c(c3)-c3c(O)cc(O)cc32)cc1"
  Qual: "="
  Obs value: 3.85
- Molecule: "CN[C@H](CC(C)C)C(=O)N[C@H]1C(=O)N[C@@H](CC(N)=O)C(=O)N[C@H]2C(=O)N[C@H]3C(=O)N[C@H](C(=O)N[C@H](C(=O)NCC(=O)Nc4ccc(C#Cc5ccccc5)cc4)c4cc(O)cc(O)c4-c4cc3ccc4O)[C@H](O)c3ccc(c(Cl)c3)Oc3cc2cc(c3O[C@@H]2O[C@H](CO)[C@@H](O)[C@H](O)[C@H]2O[C@H]2C[C@](C)(N)[C@H](O)[C@H](C)O2)Oc2ccc(cc2Cl)[C@H]1O"
  Qual: "="
  Obs value: 5.10

meta.source: paper PMC6001238
